Tested on: clinical strains of C. quillermondiae
protocol_notes: MIC, clinical yeast strains, C. quillermondiae
Format: cell-based
run_parameters: C. quillermondiae clinical yeast strain 1
Where a SMILES comes first, the peptide text is derived from it. [ ]: non-standard residue; d: D form.
quantity: Minimum inhibitory concentration
Give bare numbers.

Query :: Give the value of Minimum inhibitory concentration reported for the following: CC[C@@H](C)[C@@H](NC(=O)[C@@H](Cc1c[nH]c2ccccc12)NC(=O)[C@H](N)CCCCN)C(=O)N[C@@H](C(=O)N[C@H](Cc1c[nH]c2ccccc12)C(=O)N[C@H](CCCNC(=N)N)C(=O)N[C@H](Cc1c[nH]c2ccccc12)C(=O)N[C@H](CCCNC(=N)N)C(=O)N[C@H](Cc1ccccc1)C(=O)N[C@H](CCCCN)C(=O)N[C@H](CCCNC(=N)N)C(=O)O)C(C)C [Chain201D] (H-[dK][dW][dI][dV][dW][dR][dW][dR][dF][dK][dR]-OH)
Result :: 8

* * *

System: clinical strains of Streptococcus pneumoniae
protocol_notes: MIC, clinical strains of Streptococcus pneumoniae
Type: cell-based
Design: unit: µg/mL
run_parameters: Streptococcus pneumoniae clinical strain 2; microdilution, Muller Hinton broth-cation adjusted, 0.02% BSA, 0.2% acetic acid
Where a SMILES comes first, the peptide text is derived from it. [ ]: non-standard residue; d: D form.
I'd be grateful if you could share measured Minimum inhibitory concentration for these entries.
One number for each entry.

[
  {
    "molecule": "CC[C@@H](C)[C@@H](NC(=O)[C@@H](Cc1c[nH]c2ccccc12)NC(=O)[C@H](N)CCCCN)C(=O)N[C@@H](C(=O)N[C@H](Cc1c[nH]c2ccccc12)C(=O)N[C@H](CCCNC(=N)N)C(=O)N[C@H](Cc1c[nH]c2ccccc12)C(=O)N[C@H](CCCNC(=N)N)C(=O)N[C@H](Cc1ccccc1)C(=O)N[C@H](CCCCN)C(=O)N[C@H](CCCNC(=N)N)C(=O)O)C(C)C [Chain201D] (H-[dK][dW][dI][dV][dW][dR][dW][dR][dF][dK][dR]-OH)",
    "study_target": "clinical strains of Streptococcus pneumoniae",
    "Minimum inhibitory concentration": 4
  },
  {
    "molecule": "CC(C)C[C@@H](NC(=O)[C@H](N)CCCCN)C(=O)N[C@H](CCCCN)C(=O)N[C@H](Cc1c[nH]c2ccccc12)C(=O)N[C@H](Cc1ccccc1)C(=O)N[C@H](Cc1c[nH]c2ccccc12)C(=O)N[C@H](CC(C)C)C(=O)N[C@H](Cc1ccccc1)C(=O)N[C@H](CCCCN)C(=O)N[C@H](CCCCN)C(=O)N[C@H](CCCNC(=N)N)C(=O)O [Chain311D] (H-[dK][dL][dK][dW][dF][dW][dL][dF][dK][dK][dR]-OH)",
    "study_target": "clinical strains of Streptococcus pneumoniae",
    "Minimum inhibitory concentration": 8
  }
]

Query :: Give the value of Minimum inhibitory concentration reported for the following: CC(C)C[C@@H](NC(=O)[C@H](N)CCCNC(=N)N)C(=O)N[C@H](CCCCN)C(=O)N[C@H](Cc1c[nH]c2ccccc12)C(=O)N[C@H](Cc1ccccc1)C(=O)N[C@H](Cc1c[nH]c2ccccc12)C(=O)N[C@H](CC(C)C)C(=O)N[C@H](Cc1ccccc1)C(=O)N[C@H](CCCNC(=N)N)C(=O)N[C@H](CCCCN)C(=O)N[C@H](CCCNC(=N)N)C(=O)O [Chain307D] (H-[dR][dL][dK][dW][dF][dW][dL][dF][dR][dK][dR]-OH)
Result :: 4

* * *

Test system: clinical strains of Klebsiella pneumoniae
protocol_notes: MIC, clinical strains of K. pneumoniae
Type: cell-based
Set-up: unit: μg/ml
run_parameters: Klebsiella pneumoniae clinical strain 3; microdilution, Muller Hinton broth-cation adjusted, 0.02% BSA, 0.2% acetic acid
Where a SMILES comes first, the peptide text is derived from it. [ ]: non-standard residue; d: D form.
I'd be grateful if you could share measured Minimum inhibitory concentration for these entries.
One number for each entry.

[
  {
    "molecule": "CC(C)C[C@@H](NC(=O)[C@@H](CCCCN)NC(=O)[C@@H](CCCCN)NC(=O)[C@@H](Cc1ccccc1)NC(=O)[C@@H](CC(C)C)NC(=O)[C@@H](Cc1c[nH]c2ccccc12)NC(=O)[C@@H](CCCNC(=N)N)NC(=O)[C@@H](Cc1c[nH]c2ccccc12)NC(=O)[C@@H](CCCCN)NC(=O)[C@@H](CCCNC(=N)N)NC(=O)[C@H](N)CCCCN)C(=O)O [Chain310D] (H-[dK][dR][dK][dW][dR][dW][dL][dF][dK][dK][dL]-OH)",
    "Minimum inhibitory concentration": 128
  }
]

We next turn to a different molecule, shown below.
Query :: Give the value of Minimum inhibitory concentration reported for the following: CC(C)C[C@@H](NC(=O)[C@H](N)CCCNC(=N)N)C(=O)N[C@H](CCCCN)C(=O)N[C@H](Cc1c[nH]c2ccccc12)C(=O)N[C@H](Cc1ccccc1)C(=O)N[C@H](Cc1c[nH]c2ccccc12)C(=O)N[C@H](CC(C)C)C(=O)N[C@H](Cc1ccccc1)C(=O)N[C@H](CCCNC(=N)N)C(=O)N[C@H](CCCCN)C(=O)N[C@H](CCCNC(=N)N)C(=O)O [Chain307D] (H-[dR][dL][dK][dW][dF][dW][dL][dF][dR][dK][dR]-OH)
Result :: 16

* * *

Test system: clinical strains of Escherichia coli
protocol_notes: MIC, clinical strains of E. coli
Format: cell-based
Design: unit: μg/ml
run_parameters: Escherichia coli clinical strain 3; microdilution, Muller Hinton broth-cation adjusted, 0.02% BSA, 0.2% acetic acid
Where a SMILES comes first, the peptide text is derived from it. [ ]: non-standard residue; d: D form.
quantity: Minimum inhibitory concentration
Give bare numbers.

Query :: Give the value of Minimum inhibitory concentration reported for the following: CC[C@@H](C)[C@@H](NC(=O)[C@@H](CC(C)C)NC(=O)[C@@H](CCCNC(=N)N)NC(=O)[C@H](N)CCCNC(=N)N)C(=O)N[C@H](Cc1c[nH]c2ccccc12)C(=O)N[C@H](CCCNC(=N)N)C(=O)N[C@H](CCCNC(=N)N)C(=O)N[C@H](Cc1ccccc1)C(=O)N[C@H](CCCCN)C(=O)N[C@H](Cc1c[nH]c2ccccc12)C(=O)N[C@H](CC(C)C)C(=O)N[C@H](CCCNC(=N)N)C(=O)O [Chain204D] (H-[dR][dR][dL][dI][dW][dR][dR][dF][dK][dW][dL][dR]-OH)
Result :: 1

* * *

System: clinical strains of C. parapsilosis
protocol_notes: MIC, clinical yeast strains, C. parapsilosis
Assay type: cell-based, Candida parapsilosis
Set-up: unit: μg/ml
run_parameters: C. parapsilosis clinical yeast strain 2
Where a SMILES comes first, the peptide text is derived from it. [ ]: non-standard residue; d: D form.
quantity: Minimum inhibitory concentration
Give bare numbers.

Examples with their reported Minimum inhibitory concentration follow.
[
  {
    "compound": "C[C@@H]1[C@H](O)[C@@H](C)/C=C/C=C/C=C/C=C/C=C/C=C/C=C/[C@H](O[C@@H]2O[C@H](C)[C@@H](O)[C@H](N)[C@@H]2O)C[C@@H]2O[C@](O)(C[C@@H](O)C[C@@H](O)[C@H](O)CC[C@@H](O)C[C@@H](O)CC(=O)O[C@H]1C)C[C@H](O)[C@H]2C(=O)O [Amphotericin B, reference compound]",
    "study_target": "clinical strains of C. parapsilosis",
    "observed": 2
  },
  {
    "compound": "CC(C)C[C@@H](NC(=O)[C@H](N)CCCNC(=N)N)C(=O)N[C@H](CCCCN)C(=O)N[C@H](Cc1c[nH]c2ccccc12)C(=O)N[C@H](Cc1ccccc1)C(=O)N[C@H](CC(C)C)C(=O)N[C@H](CC(C)C)C(=O)N[C@H](Cc1ccccc1)C(=O)N[C@H](CCCNC(=N)N)C(=O)N[C@H](CCCCN)C(=O)N[C@H](CCCNC(=N)N)C(=O)O [Chain308D] (H-[dR][dL][dK][dW][dF][dL][dL][dF][dR][dK][dR]-OH)",
    "study_target": "clinical strains of C. parapsilosis",
    "observed": 8
  },
  {
    "compound": "CC(C)C[C@@H](NC(=O)[C@H](N)CCCCN)C(=O)N[C@H](CCCCN)C(=O)N[C@H](Cc1c[nH]c2ccccc12)C(=O)N[C@H](Cc1ccccc1)C(=O)N[C@H](Cc1c[nH]c2ccccc12)C(=O)N[C@H](CC(C)C)C(=O)N[C@H](Cc1ccccc1)C(=O)N[C@H](CCCCN)C(=O)N[C@H](CCCCN)C(=O)N[C@H](CCCNC(=N)N)C(=O)O [Chain311D] (H-[dK][dL][dK][dW][dF][dW][dL][dF][dK][dK][dR]-OH)",
    "study_target": "clinical strains of C. parapsilosis",
    "observed": 8
  },
  {
    "compound": "CC(C)C[C@@H](NC(=O)[C@@H](CCCCN)NC(=O)[C@@H](CCCCN)NC(=O)[C@@H](Cc1ccccc1)NC(=O)[C@@H](CC(C)C)NC(=O)[C@@H](Cc1c[nH]c2ccccc12)NC(=O)[C@@H](CCCNC(=N)N)NC(=O)[C@@H](Cc1c[nH]c2ccccc12)NC(=O)[C@@H](CCCCN)NC(=O)[C@@H](CCCNC(=N)N)NC(=O)[C@H](N)CCCCN)C(=O)O [Chain310D] (H-[dK][dR][dK][dW][dR][dW][dL][dF][dK][dK][dL]-OH)",
    "study_target": "clinical strains of C. parapsilosis",
    "observed": 64
  }
]

Query :: Give the value of Minimum inhibitory concentration reported for the following: CC[C@@H](C)[C@@H](N)C(=O)N[C@H](Cc1c[nH]c2ccccc12)C(=O)N[C@H](CCCCN)C(=O)N[C@H](CCCNC(=N)N)C(=O)N[C@H](Cc1ccccc1)C(=O)N[C@H](CCCNC(=N)N)C(=O)N[C@H](CC(C)C)C(=O)N[C@H](Cc1ccccc1)C(=O)N[C@H](CCCCN)C(=O)N[C@H](CCCCN)C(=O)N[C@H](Cc1c[nH]c2ccccc12)C(=O)O [Chain304D] (H-[dI][dW][dK][dR][dF][dR][dL][dF][dK][dK][dW]-OH)
Result :: 64
